Here the recorded melting point is given for each entry.

INSERT INTO results (compound, result) VALUES
  ('Cn1cnc(S(=O)(=O)N2CCS(=O)(=O)CC2)c1', '179 to 180 °C');

q: Retrieve melting point measured for `CC(=O)c1c(C)cc(NC(C)(C)C)nc1NC(C)(C)C` and print it.
a: 127 to 128 °C

q: Retrieve melting point measured for `CC(=CCc1c(O)c(C)c2c(c1OS(=O)(=O)c1ccc(C)cc1)C(=O)OC2)CCC(=O)O` and print it.
a: 148 to 149 °C

q: Retrieve melting point measured for `O=C(c1nc2ccc(O)cc2[nH]1)N1CCC(=Cc2ccc(Cl)cc2)CC1` and print it.
a: 88 to 89 °C

###

Here the recorded melting point is given for each entry.

Reference set, count: 5
INSERT INTO assay_data (molecule, result) VALUES
  ('Cc1ccccc1N1CCN(CCC2CN(C)C(=O)O2)CC1 (stereo unspecified)', '55 to 57 °C'),
  ('O=C(O)COc1ccc(C(=O)c2ccc(Cl)cc2)c(Cl)c1Cl', '196 to 198 °C'),
  ('CN(CCCNc1ncc(Cc2ccc(Cl)cc2)c(=O)[nH]1)c1ccccn1', '65 °C'),
  ('CCOC(=O)c1nn(-c2ccc(Cl)cc2Cl)c(-c2cccs2)c1C', '121 to 122 °C'),
  ('O=C(NCCc1cccc2ccc(OC3CCCCC3)cc12)C1CC1', '153 to 155 °C');

Please find the next molecule below.
q: Retrieve melting point measured for OC1C[C@H]2CN(C3=Nc4cc(Cl)ccc4Oc4ccccc43)CCN2C1 (stereo partly specified) and print it.
a: 90 to 92 °C

###

Here the recorded melting point is given for each entry.

Reference set, count: 3
INSERT INTO results (smiles_structure, result) VALUES
  ('COc1cccc2c(Oc3ccccc3)cccc12', '65 to 66 °C'),
  ('Brc1cc(Br)c2c(c1)CCN2', '164 to 165 °C'),
  ('COc1cc(OC)c(C)c(C(=O)NCC23CC4CC(CC(Cl)(C4)C2)C3)c1', '173 to 175 °C');

Please find the next compound below.
q: Retrieve melting point measured for `COC(=O)NNC(=O)Nc1ccccc1` and print it.
a: 154 to 155 °C

###

Here the recorded melting point is given for each entry.

Reference set, count: 3
INSERT INTO assay_data (compound, result) VALUES
  ('C=CC(C)(C)C(=O)COc1ccc(-c2ccccc2)cc1', '42 to 44 °C'),
  ('OCc1cccc(Nc2ncc(-c3ccccc3)s2)n1', '196 to 198 °C'),
  ('O=C(O)CCNC(=O)NCCCCC1CCSS1 (stereo unspecified)', '108 to 110 °C');

q: Retrieve melting point measured for `COc1cc(OCc2cccnc2)ccc1/C=C/c1cc(/C=C/c2ccc3cc[nH]c3c2)n[nH]1` and print it.
a: 90 to 95 °C

q: Retrieve melting point measured for `O=S(=O)(NCc1ccnc2ccccc12)c1ccc(Cc2ccccc2)cc1` and print it.
a: 106 to 107 °C

q: Retrieve melting point measured for COc1cc(N2CCCC2)ccc1CN1C(=O)C(C)(c2ccccc2Cl)c2cc(Cl)ccc21 (stereo unspecified) and print it.
a: 198 °C

###

Here the recorded melting point is given for each entry.

INSERT INTO results (smiles_structure, measured_quantity, result) VALUES
  ('CN(C)c1cc(CC(C#N)=CNc2ccccc2)cc(N(C)C)c1Cl', 'melting point', '168 °C'),
  ('CC(C)[Si](C#Cc1ccc2cc3c(cc2c1)Cc1cc2cc(C#C[Si](C(C)C)(C(C)C)C(C)C)ccc2cc1C3)(C(C)C)C(C)C', 'melting point', '73 to 75 °C');

Please find the next molecule below.
q: Retrieve melting point measured for `O=C(O)c1[nH]c(-c2ccoc2)cc1-c1ccc(O)cc1` and print it.
a: 154 to 156 °C

Data origin: a melting point compilation (Tetko et al.; mined from patent text by program, amines drawn as free bases though some values may be those of a salt)
